# Test system: SNB-19
# PROTOCOL_TEXT: NCI tumour cell line growth inhibition, 48 h
Calls of active or inactive are those of the source. No stated cut-off is given here; in the data, active = GI50 up to about 1.1 µM and inactive = higher.
QUANTITY_NAME: GI50

Query the reported GI50 for SNB-19; item: CSc1c(C#N)c(N)nc2c(/N=N\c3ccc(Br)cc3)c(N)nn12 28.4 µM (inactive)

Query the reported GI50 for SNB-19; item: COc1cccc2c1cc([N+](=O)[O-])c1c(C(=O)O)cc3c(c12)OCO3 37.5 µM (inactive)

Query the reported GI50 for SNB-19; item: CC(=O)OC/C=C(/C=C/CNC1CCCCC1)OC(C)=O 24.5 µM (inactive)

Query the reported GI50 for SNB-19; item: O=CN1CCN(CC(O)CN2CCCCC2)CC1 (stereo unspecified) > 100 µM (inactive)

Query the reported GI50 for SNB-19; item: CC(=O)NC(CCCCNC(=O)NCCCl)C(=O)NCc1ccccc1 (stereo unspecified) > 100 µM (inactive)

Query the reported GI50 for SNB-19; item: N#CC(NCCO)=C1C(=O)c2ccccc2C1=O > 100 µM (inactive)

* * *

# Tested on: T47D
# PROTOCOL_TEXT: NCI tumour cell line growth inhibition, 48 h
Calls of active or inactive are those of the source. No stated cut-off is given here; in the data, active = GI50 up to about 1.1 µM and inactive = higher.
QUANTITY_NAME: GI50

Entry N=C(N)N/N=C/c1c(-c2ccc([N+](=O)[O-])cc2)nc2sccn12 : reported GI50 = ? 1.74 µM (inactive)

Entry CC[C@]12C=CCN3CC[C@@]4(c5cc(Br)c(OC)cc5N(C)[C@H]4[C@@](O)(C(=O)NC(Cc4c[nH]c5ccccc45)C(=O)OC)[C@@H]1O)[C@@H]32 (stereo not given in full) : reported GI50 = ? 5.2 µM (inactive)

Entry O[C@@]1(c2cccs2)c2cccc(Cl)c2[C@](O)(c2cccs2)c2cccc(Cl)c21 : reported GI50 = ? 32.9 µM (inactive)

Entry CCOC1(OCC)C2C=CC1C(COS(=O)(=O)c1ccc(C)cc1)C2COS(=O)(=O)c1ccc(C)cc1 (stereo not given) : reported GI50 = ? 14.2 µM (inactive)

Entry CCNC1=C(NC(=O)CC)C(=O)c2ccccc2C1=O : reported GI50 = ? > 100 µM (inactive)

Entry CCCCCCCCCCCCCCCCCCNc1nc(=O)n(C2CC(OP(=O)(O)OCC3OC(n4cc(F)c(=O)[nH]c4=O)CC3O)C(CO)O2)cc1F (stereo not given) : reported GI50 = ? 31.2 µM (inactive)

Entry CCSc1nc(N/N=C/c2cccs2)c2cnn(CO)c2n1 : reported GI50 = ? 3.8 µM (inactive)

Entry CC(=O)N(C(=O)CC(=O)N/N=C\c1ccc(Br)c(N(CCC#N)CCC#N)c1)c1ccc(Cl)cc1 : reported GI50 = ? 43.3 µM (inactive)

Entry O=C(/N=C1/OC(CN2CCOCC2)CN1C(=O)Nc1ccccc1)Nc1ccccc1 (stereo not given) : reported GI50 = ? 21.4 µM (inactive)

Entry CN(N=O)C(=O)Nc1ccc(C(=O)O)cc1 : reported GI50 = ? > 100 µM (inactive)

* * *

# Tested on: SF-539
# PROTOCOL_TEXT: NCI tumour cell line growth inhibition, 48 h
Activity calls are given as the source filed them. Rule as the data show it: active = GI50 up to about 1.1 µM and inactive = higher.
QUANTITY_NAME: GI50

Entry COc1ccccc1-c1cc(=O)c2ccc(OC)c(OC)c2o1 : reported GI50 = ? > 100 µM (inactive)

Entry COc1cc2c(cc1OC)-c1cc3ccccc3c[n+]1CC2 : reported GI50 = ? > 100 µM (inactive)

Entry Cc1csc2nc(-c3ccncc3)cn12 : reported GI50 = ? > 44 µM (inactive)

Entry O=C1CSCC(=O)Nc2ccccc2N1 : reported GI50 = ? > 100 µM (inactive)

Entry CCN(CC)/[N+]([O-])=N/OC : reported GI50 = ? > 100 µM (inactive)

Entry Oc1ccc2c3c1OC1C(=NN=C4CCC5(O)C6Cc7ccc(O)c8c7C5(CCN6CC5CC5)C4O8)CCC4(O)C(C2)N(CC2CC2)CCC314 (stereo unspecified) : reported GI50 = ? 27.1 µM (inactive)
